Hello, the source for this data is PubChem BioAssay (NCI), in case you need it.

Test system: NCI-H460 lung
test: NCI-60 one-dose screen, 48 h (100 = growth as untreated, 0 = no growth, -100 = all killed)
cond: 10 µM unless noted
The panel holds about 83,000 compounds, 20% with a hit somewhere; the sample as a whole holds those more often.
// values below are reported growth
reported-endpoint: growth (%)

CCN(CC)CCCN1C(=O)c2c(c(C)c3c(oc4cc(O)ccc43)c2C)C1=O ... -24.6
COc1cccc([C@H]2c3[nH]c4ccccc4c3C[C@H]3C(=O)N(CCCCCCC(=O)NO)CC(=O)N23)c1 ... 72.9
COc1ccc2c(O)c(/C=C3\N=Nc4ncccc43)oc2c1C[C@H]1CCNC[C@H]1F ... -26
COc1ccc(-c2cn(-c3cc(OC)c(OC)c(OC)c3)c(=O)n2C(C)=O)cc1 ... 106
Cc1ccc(-c2nc3nc(-c4ccccc4)nc(N4CCNCC4)c3o2)cc1 ... -72.4

###

Test system: M14 melanoma
test: NCI-60 one-dose screen, 48 h
cond: 10 µM unless noted
Compounds without any hit were thinned out: in the full panel of roughly 83,000, 20% have a hit. The source made the active and inactive calls. Rule for the calls: active = growth percent below 10; inactive = the rest.
Outcomes: yes for active, no for inactive

CCNc1nc(-c2ccc(Cl)c(OC)c2)c(-c2ccnc(NCCCNS(=O)(=O)c3ccc(Cl)cc3)n2)s1 ... no
CCCCNc1ccc(C#N)c(OCCN(CC)CC)c1 ... no
C#CCn1cnc2c(Nc3cccc(NC(=O)C=C)c3)ncnc21 ... no
O=C1Nc2ccccc2[C@]12CC(c1ccccc1)=NN2 ... no
CN(C)CCNc1nc2c3cc(Cl)ccc3nn2c2ccccc12 ... no
C=C(C)[C@@H]1CC[C@]2(C(=O)N3CCN(C)CC3)CC[C@]3(C)[C@H](CC[C@@H]4[C@@]5(C)CC(=C/c6ccncc6)/C(=N/O)C(C)(C)[C@@H]5CC[C@]43C)[C@@H]12 ... no
Cc1ccc(S(=O)(=O)N2CCCC2CO)cc1 (stereo unspecified) ... no
O=C(CCC(=O)N/N=C/c1ccccc1O)N/N=C/c1ccccc1O ... no
c1ccc(C2=NN[C@H](c3cn(-c4ccccc4)nc3-c3ccccc3)C2)cc1 ... no
COc1ccc(C(=O)Nc2ncc(Cc3ccc(F)cc3)s2)cc1 ... no
CN1CCN(Cc2ccc(NC(=O)c3cncc(C#Cc4cnc(N)c5ccccc45)c3)cc2C(F)(F)F)CC1 ... yes
COc1ccc2cc(-c3ccc(NC(C)=O)c(=O)o3)ccc2c1 ... no
COc1ccc2c(c1)c(-c1noc(C(=O)c3cn(C)c4ccc(Br)cc34)n1)cn2C ... no
CC1(c2ccccc2O)NN=C(/N=C/c2cccc([N+](=O)[O-])c2)N1C(Cc1c[nH]c2ccccc12)C(=O)O (stereo unspecified) ... no
O=C(/C=C/c1cccs1)c1ccc(Cl)nc1 ... no
CC1=Nc2cnc(Nc3ccc(OCCN4CCCC4)cc3)nc2Nc2ccccc21 ... no
Cc1cc(N)c2cc(NC(=O)/C=C\c3ccccc3Cl)ccc2n1 ... yes
S=C1CCSC(=S)N1CCCN1C(=S)CCSC1=S ... no
COC1=CC(c2ccc[nH]2)=N/C1=C\c1[nH]c(C)c(C(=O)OCc2ccccc2)c1C ... yes
N#Cc1c(-c2cccs2)cc(-c2cccnc2)[nH]c1=O ... no
CC(C)CCNC(=O)Cn1cccc(NC(=O)OCc2ccccc2)c1=O ... no

###

Test system: ACHN renal
test: NCI-60 one-dose screen, 48 h (100 = growth as untreated, 0 = no growth, -100 = all killed)
cond: 10 µM unless noted
Compounds without any hit were thinned out: in the full panel of roughly 83,000, 20% have a hit.
reported-endpoint: growth (%)

Cc1ccc(/C=C2\CN(C(=O)OC(C)(C)C)C/C(=C\c3ccc(C)cc3)C2=O)cc1 ... 20.3
O=C(Cn1c(=O)sc2ccccc21)NNS(=O)(=O)c1ccccc1[N+](=O)[O-] ... 101
C=C(C)[C@@H]1CC[C@]2(C(=O)N3CCN(C)CC3)CC[C@]3(C)[C@H](CC[C@@H]4[C@@]5(C)CC(=C/c6ccncc6)/C(=N/O)C(C)(C)[C@@H]5CC[C@]43C)[C@@H]12 ... 75.9
N#CC1C=CN(CC(N)=O)c2ccc3cccnc3c21 (centres undefined) ... 104
O=[N+]([O-])C1C(c2ccccc2)C12c1ccccc1-c1ccccc12 (centres undefined) ... 29.6
C=C1C(=O)O[C@H]2[C@H]1CC/C(COC(=O)CSCCSCC(=O)OC/C1=C/CC[C@@]3(C)O[C@H]3[C@H]3OC(=O)C(=C)[C@@H]3CC1)=C\CC[C@@]1(C)O[C@@H]21 ... 2.6
CN1CCN(c2ccc(C(=O)Nc3cccc(C#Cc4cccc5[nH]nc(N)c45)c3)cc2C(F)(F)F)CC1 ... -46.2
Oc1c(Cl)cc(Cl)c2ccc(Cn3cc(-c4cc(F)cc(F)c4)nn3)nc12 ... 36.5
CC1=Nc2cnc(Nc3ccc(OCCN4CCCC4)cc3)nc2Nc2ccccc21 ... 28.7
c1cc2[nH]ncc2cc1-c1nc2ccc3[nH]ncc3c2c2c1CCCC2 ... 9.47
COc1cc(CNC(=O)CCCC/C=C/C(C)C)ccc1OCc1nnc(Nc2ccc([N+](=O)[O-])cc2)o1 ... 41.2
c1ccc(C2=NN[C@H](c3cn(-c4ccccc4)nc3-c3ccccc3)C2)cc1 ... -4.87
O=[N+]([O-])c1ccc(S(=O)(=O)N2CCN(C3=NS(=O)(=O)c4ccccc4N3c3ccccc3)CC2)cc1 ... 99.3
Cc1cc2c(O)c(-c3cc(Cl)ccc3Cl)c3sc(=O)oc3c2cc1C ... 79.8
CC(C)=NNc1ccccn1 ... 27.9
O=C1c2cccnc2C(=O)c2c1c(C(=O)NCCn1ccnc1)c1ccccn21 ... 31.5
Cc1nc2ncnc(Cl)c2[nH]1 ... 109
CS(=O)(=O)C1=CN(CCO)C(=O)N2CCCN=C12 ... 103
CN1CCN(c2ccc(NC(=O)c3cncnc3Nc3ccc(OCc4ccccn4)c(Cl)c3)cc2)CC1 ... 51.8

###

System: SK-MEL-28 melanoma
test: NCI-60 one-dose screen, 48 h
cond: 10 µM unless noted
About 83,000 compounds went through this panel and 20% of them were active in at least one assay; those are over-represented in the sample as a whole. Active and inactive are the calls of the source. How the source made its calls: active means growth percent below 10; inactive means the rest.
Outcomes: active, inactive

O=C1CNC(c2ccccc2)C(c2ccccc2)N1 (stereo unspecified) ... inactive
O=C1/C(=C/c2ccc(F)cc2)COc2ccc(O)c(O)c21 ... inactive
O=C(Nn1c2c(sc1=NCc1ccccc1)C(=O)c1ccccc1C2=O)c1cc2ccc1CCc1ccc(cc1)CC2 ... inactive
O=C(Cc1ccccc1)Nc1nc(O)c(/C=C2\C(=O)C=Cc3ccccc32)s1 ... inactive
N#Cc1cccc(F)c1 ... inactive
CCCCC(=O)Nc1ncc(Cc2ccc(Cl)cc2)s1 ... inactive
O=C1/C(=C/c2cccs2)SC(=S)N1CCCN1CCOCC1 ... inactive
CC(C)(C)n1cc(-c2ccnc(NCCNS(=O)(=O)c3cccc4ccccc34)c2)c(-c2cccc(F)c2)n1 ... active
C=CCn1c(SCC(=O)NCc2cc(C)c(O)c(C)c2)nc2ccc(Cl)cc2c1=O ... inactive
Cc1cc(Cl)ccc1NC(=O)c1cc2ccccc2cc1O ... inactive
CCCCCC(=O)OCC(=O)O[C@@H]1C[C@]2(C(C)C)O[C@@]1(C)[C@@H]1CC[C@@H](C)[C@H]1[C@@H]2OC(=O)/C=C/c1ccccc1 ... inactive
N#Cc1nn(-c2cc(=O)[nH]c3ccc(Cl)cc23)c(N)c1C#N ... inactive
CC1=NN(c2nc(SCC(=O)Nc3nc4ccc(C)cc4s3)nc(-c3ccccc3)c2C#N)C(=O)C1 ... inactive
COc1ccc2c3c([nH]c2c1)C(=O)c1nc(C)ccc1C3=O ... inactive
CCc1nc2c(=O)[nH]cnc2o1 ... inactive
COc1ccc2cc(C(=O)c3coc4ccc(O)cc34)ccc2c1 ... inactive
CCN1C(=O)N(CC)C2C1NN=c1s/c(=C\c3cccc([N+](=O)[O-])c3)c(=O)n12 (stereo unspecified) ... inactive
CC1=C(CCC(C)N(C)Cc2ccc(OCCCN3CCCC3)cc2)C(C)(C)CCC1 (stereo unspecified) ... active
Cc1cc(Cl)ccc1Nc1nc(C(F)(F)F)ccc1C(=O)N/N=C/c1ccc([N+](=O)[O-])cc1 ... active
O=C1N(Cc2ccccc2Cl)c2ccccc2C12NN=C(c1cccc(Cl)c1)S2 (stereo unspecified) ... active
C/C(=N/O)c1ccc(F)cc1 ... inactive

###

System: IGROV1 ovarian
test: NCI-60 one-dose screen, 48 h (100 = growth as untreated, 0 = no growth, -100 = all killed)
cond: 10 µM unless noted
The panel holds about 83,000 compounds, 20% with a hit somewhere; the sample as a whole holds those more often.
reported-endpoint: growth (%)

CSc1nnc(-c2cnn3c2NC(c2ccccc2)C3)n1-c1ccc(C(F)(F)F)cc1 (stereo unspecified) ... 69.8
N=C(N)c1ccc(-c2ccc(-c3ccc(Cl)cc3)s2)nc1 ... -79.2
Cc1ccc(Cc2cnc(NC(=O)c3cc(Br)cs3)s2)cc1 ... 49.6
CC12CCC3c4ccccc4CCC3(CO1)C2 (stereo unspecified) ... 121
OCCOCCN(Cc1ccccn1)Cc1cc(I)cc(I)c1O ... 77.9
CCOC(=O)c1c(NC(=O)c2ccc(C(C)C)cc2)sc2c(CN(C)C)c(O)ccc12 ... 72.5
